Data provenance: patent US20250382354A1

molecular target: T1, HCoV-229E S ectodomain (HCoV-229E); assay: ELISA on coated S
T1 construct: range 17-1142
OBSERVABLE: EC50

>  <BINDER>
fp.009 (antibody, V domains shown) VH: VQLVESGGGVVQPGTSLTLSCEASGFTFSNYAMHWVRQAPGKGLEWVAIISFDTRNKKFAGSVQGRFSISRDNAKNSIYLQMNNLRPEDTGIYYCARDVFLSDYDSRGFDRTRGGFDYWGQGTLVTVSS VL: EIVMTQSPATLSVSPGEKATLSCRASESVGSSLAWYQQKLGQAPRLLIYGASTRATGIPARFSGSGSGAEFTLTISSLQSEDFAIYYCQQYGDWPLLTFGGGTKVEIK

>  <VALUE>
0.0285 µg/mL

$$$$
>  <BINDER>
fp.011 (antibody, V domains shown) VH: EVQLLESGGGLVQPGGSLRLSCAGSGFTFNNYAMTWVRQAPGRGLEWVSAISGSGGSSHYADSVKGRFTITRDNSKNTLYLQMNSLRAEDTAVYYCAFIDYYSGWSYYYGLDVWGQGTTVTVSS VL: EIVLTQSPATLSLSPGERATLSCRASQGVRTYVAWYQQKPGQAPRLLIYDASNRATGIPARFSGSGSGTDFTLTISSLEPEDFAVYYCQQRYNWPLCSFGQGTKLEIK

>  <VALUE>
0.151 µg/mL

$$$$
>  <BINDER>
fp.002 (antibody, V domains shown) VH: VQLVESGGGVVQPGTSLRLSCAGSGFNFDNYAIHWVRQAPGQGLEWVAIISYEARNKKYAGSVTGRFSISRDNSKSMVYLQMDSLRGEDTAVYYCARDLFLSDYDRSGYDPTRGGFDLWGQGTLVTVSS VL: EIVMTQSPATLSVSPGERATLSCRASQSVSSSLAWYQHKLGQAPRLLIYGASTRATGIPGRFSGSGSGTEFTLTISSLQSEDVAIYYCQQYGDWPLVTFGGGTKVEIK

>  <VALUE>
0.04 µg/mL

$$$$
